- TGT: human recombinant adrenergic α2B receptor (Homo sapiens)
- Construct: expressed in transfected cells; host or cells: CHO-K1
- Sequence (P18089 whole entry): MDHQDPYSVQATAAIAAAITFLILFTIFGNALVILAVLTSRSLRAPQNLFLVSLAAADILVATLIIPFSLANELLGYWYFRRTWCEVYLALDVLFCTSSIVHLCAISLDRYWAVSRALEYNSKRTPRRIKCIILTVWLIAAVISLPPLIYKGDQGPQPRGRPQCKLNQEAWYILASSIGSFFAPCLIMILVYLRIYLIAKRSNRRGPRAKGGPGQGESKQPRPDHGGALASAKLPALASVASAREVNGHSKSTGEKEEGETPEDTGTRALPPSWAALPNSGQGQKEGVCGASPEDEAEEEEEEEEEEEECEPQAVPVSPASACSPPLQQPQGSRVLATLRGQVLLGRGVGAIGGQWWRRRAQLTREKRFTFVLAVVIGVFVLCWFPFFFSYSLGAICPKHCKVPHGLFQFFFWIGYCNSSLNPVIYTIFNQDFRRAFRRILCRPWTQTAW
- PROTOCOL_SUMMARY: Radioligand binding, adrenergic α2B receptor ([3H]Rauwolscine)
- CONDITION_DETAILS: 0.1 μM compound, CHO-K1 cells, read-out: Percentage inhibition of ligand binding, Adrenergic α2B
METRIC: inhibition at 0.1 µM (%)
Answer with a number only, understood to be in %.

Recorded results for 4 compounds are shown here.
> print(dat)
                                   compound                                       tgt  experimental.value
1  Cc1ccc2c(c1)c1c(n2-c2cscc2-c2ccc(C)s2)CCN(C)C1 [Compound No. 79]  human recombinant adrenergic α2B receptor (Homo sapiens)                 104
2  COc1ccc(-c2cscc2-n2c3c(c4cc(C)ccc42)CN(C)CC3)cc1 [Compound 37]  human recombinant adrenergic α2B receptor (Homo sapiens)                  96
3  Cc1ccc2c(c1)c1c(n2-c2cccc(-c3sccc3C)c2)CCN(C)C1 [Compound 43]  human recombinant adrenergic α2B receptor (Homo sapiens)                   6
4  Cc1ccc2c(c1)c1c(n2-c2cscc2-c2ccc3cnccc3c2)CCN(C)C1 [Compound No. 68]  human recombinant adrenergic α2B receptor (Homo sapiens)                  86

Query block: What does the data say about its inhibition at 0.1 µM? Entry: Cc1ccc2c(c1)c1c(n2-c2cscc2-c2c(C)noc2C)CCN(C)C1 [Compound No. 62]
Result block: 19

Query block: Field entry: Cc1ccc2c(c1)c1c(n2-c2ccc3nc(C)ccc3c2)CCN(C)C1 [Compound No. 157]
Result block: 60

Query block: Field entry: Cc1ccc2c(c1)c1c(n2-c2cscc2-c2ccnn2C)CCN(C)C1 [Compound No. 150]
Result block: 77

* * *

List of inhibition at 0.03 µM values.
- TGT: human recombinant adrenergic α2A receptor (Homo sapiens)
- Construct: expressed in transfected cells; host or cells: insect Sf9 cells
- Sequence (P08913 whole entry): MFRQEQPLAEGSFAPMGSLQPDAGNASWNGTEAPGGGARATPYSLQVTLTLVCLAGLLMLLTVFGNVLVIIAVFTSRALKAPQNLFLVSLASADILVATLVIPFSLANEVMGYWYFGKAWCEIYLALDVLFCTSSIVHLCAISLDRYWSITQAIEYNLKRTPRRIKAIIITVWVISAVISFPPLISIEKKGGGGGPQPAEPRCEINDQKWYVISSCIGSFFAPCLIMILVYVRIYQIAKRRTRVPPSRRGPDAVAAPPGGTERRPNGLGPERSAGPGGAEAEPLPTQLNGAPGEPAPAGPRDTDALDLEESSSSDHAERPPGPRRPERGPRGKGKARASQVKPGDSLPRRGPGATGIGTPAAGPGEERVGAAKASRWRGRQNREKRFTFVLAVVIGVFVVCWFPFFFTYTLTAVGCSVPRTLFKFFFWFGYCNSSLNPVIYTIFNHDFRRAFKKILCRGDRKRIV
- PROTOCOL_SUMMARY: Radioligand binding, adrenergic α2A receptor ([3H]MK-912)
- CONDITION_DETAILS: 0.03 μM compound; Sf9 cells; 1 nM [3H]MK-912; read-out: Percentage inhibition of ligand binding, Adrenergic α2A
Answer with a number only, understood to be in %.

Recorded results for 2 molecules are shown here.
> print(dat)
                         chemical.structure  endpoint.unit  experimental.value
1  Cc1ccc2c(c1)c1c(n2-c2cscc2-c2ccc3c(ccn3C)c2)CCN(C)C1              %                  87
2  Cc1ccc2c(c1)c1c(n2-c2cscc2-c2ccc3cnccc3c2)CCN(C)C1              %                  76

Query block: What does the data say about its inhibition at 0.03 µM? Entry: Cc1ccc2c(c1)c1c(n2-c2cscc2-c2ccc(C)s2)CCN(C)C1
Result block: 82

Query block: Field entry: Cc1ccc2c(c1)c1c(n2-c2cscc2-c2ccc(S(C)(=O)=O)cc2)CCN(C)C1
Result block: 44

Query block: Field entry: Cc1csc(-c2cscc2-n2c3c(c4cc(C)ccc42)CN(C)CC3)c1
Result block: 82

Query block: Field entry: Cc1ccc2c(c1)c1c(n2-c2ccccc2-c2ccc3c(ccn3C)c2)CCN(C)C1
Result block: 80

Query block: Field entry: Cc1ccc2c(c1)c1c(n2-c2ccccc2-c2cccn2C)CCN(C)C1
Result block: 74

Query block: Field entry: COc1ccc(-c2cscc2-n2c3c(c4cc(C)ccc42)CN(C)CC3)cc1
Result block: 81
